Biological target: HPK1 (Homo sapiens (Human), UniProt Q92918)
Sequence (Q92918 1-346 limits assumed): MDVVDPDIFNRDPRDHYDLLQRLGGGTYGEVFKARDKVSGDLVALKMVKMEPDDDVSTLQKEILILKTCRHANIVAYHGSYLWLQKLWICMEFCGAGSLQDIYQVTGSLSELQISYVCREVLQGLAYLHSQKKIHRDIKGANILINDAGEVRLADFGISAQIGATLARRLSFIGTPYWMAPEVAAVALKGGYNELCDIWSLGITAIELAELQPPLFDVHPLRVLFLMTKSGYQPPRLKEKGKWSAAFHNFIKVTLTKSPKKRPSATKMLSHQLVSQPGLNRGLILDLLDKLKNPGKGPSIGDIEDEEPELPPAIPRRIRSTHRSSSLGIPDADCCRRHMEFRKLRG
pKi: −log10 of the molar value.
Give yes when the value for pKi is at least 7. Give no when it is less.

Inquiry: Could you tell me if the measured pKi of CN(C)C(=O)c1c(N)ccc(-c2cnc3c(c2Cl)[C@]2(CC[C@H](C(=O)N(C)C)C2)CN3)c1F (single isomer, unassigned) [Compound 107a] reaches 7 or more?
Reply text: yes

Inquiry: Textbook exercise: given the entry CO[C@@H]1C[C@@]2(CNc3ncc(-c4ccc(N)c(C(=O)N(C)C)c4F)c(Cl)c32)C[C@H]1O (stereo in doubt) [Compound 140a] , state whether its pKi is greater than or equal to 7.
Reply text: no

Inquiry: Item `Clc1ccc2[nH]cc(-c3cnc4c(c3)C3(CC3)CN4)c2c1` with pKi of 7 or above?
Reply text: yes

###

HPK1 (Homo sapiens (Human), UniProt Q92918): reported pKi for various molecules.
One number for each entry, as −log10 of the molar value.

Reference set (6 entries):
[
  {
    "MOLECULE": "CN(C)C(=O)c1c(N)ccc(-c2cnc3c(c2Cl)[C@]2(CC[C@@H](n4ccnn4)C2)CN3)c1F (single isomer, unassigned) [Compound 90c]",
    "pKi": 7.09
  },
  {
    "MOLECULE": "Clc1c(-c2ccc(COC3CCOCC3)cc2)cnc2c1C1(CC=CC1)CN2 [Compound 220]",
    "pKi": 6.51
  },
  {
    "MOLECULE": "CN(C)C(=O)c1c(N)ccc(-c2cnc3c(c2Cl)[C@]2(CC[C@@](O)(Cn4ccnc4)C2)CN3)c1F (relative stereo) [Compound 117a]",
    "pKi": 6.61
  },
  {
    "MOLECULE": "Cc1c(CC#N)ccnc1-c1cccc(-c2cnc3c(c2Cl)C2(CC=CC2)CN3)c1 [Compound 249]",
    "pKi": 8.37
  },
  {
    "MOLECULE": "CN(C)C(=O)c1c(N)ccc(-c2cnc3c(c2Cl)[C@]2(CCC(=O)NC2)CN3)c1F (single isomer, unassigned) [Compound 123b]",
    "pKi": 6.11
  },
  {
    "MOLECULE": "c1nc2c(cc1-c1c[nH]c3ccc(C4CC4)cc13)C1(CC1)CN2 [Compound 328]",
    "pKi": 6.54
  }
]

Would you kindly look at the next entry?
The molecule listed as NC(=O)CCn1cc(-c2cnc3c(c2Cl)C2(CC=CC2)CN3)cn1 [Compound 311] has a reported pKi of 6.79

###

Biological target: HPK1 (Homo sapiens (Human))
pKi: −log10 of the molar value.
Use 7 as the dividing line for pKi, with the line itself on the rule met side and lower values as rule not met.

Some entries whose results are on file:
[
  {
    "COMPOUND": "Cc1cnn([C@H]2CC[C@]3(CC2)CNc2ncc(-c4ccc(N)c(C(=O)N(C)C)c4F)c(Cl)c23)c1 [Compound 148a]",
    "ANSWER_LABEL": "rule met"
  },
  {
    "COMPOUND": "CN(C)C(=O)c1c(N)ccc(-c2cnc3c(c2Cl)[C@]2(CC[C@](C)(C#N)C2)CN3)c1F (single isomer, unassigned) [Compound 131a]",
    "ANSWER_LABEL": "rule met"
  }
]

Inquiry: Exam item: decide whether the reported pKi for CN(C)C(=O)c1c(N)ccc(-c2cnc3c(c2Cl)[C@@]2(CN3)C[C@H]2CO)c1F [Compound 39a] is at least 7.
Reply text: rule met

Inquiry: Hello, I need to know if `CN(C)C(=O)c1ccc(-c2cnc3c(c2Cl)C2(CC=CC2)CN3)c(F)c1` has measured pKi not below 7. Thanks!
Reply text: rule not met

Inquiry: Identify whether the reported pKi of the following compound is 7 or greater: `CN(C)C(=O)c1cc(-c2cnc3c(c2)C2(CC2)CN3)ccc1N`
Reply text: rule met

Inquiry: Hi team, for Cc1cnn([C@H]2CC[C@@]3(CNc4ncc(-c5ccc(N)c(C(=O)N(C)C)c5F)c(Cl)c43)C2)n1 (relative stereo) [Compound 114a] , is the recorded pKi at or above 7?
Reply text: rule met

###

HPK1 (Homo sapiens (Human)): reported Ki for various molecules.
Give bare numbers, in nM.

// known answers, use as guide
[
  {
    "MOLECULE": "Clc1c(-c2ccc(Oc3ncccn3)cc2)cnc2c1C1(CC=CC1)CN2",
    "MEASURED_PARAMETER": "Ki",
    "REPORTED": 283
  },
  {
    "MOLECULE": "Cn1cccc(-c2cccc(-c3cnc4c(c3Cl)[C@@]3(CC[C@@](C)(C(N)=O)C3)CN4)c2)c1=O (single isomer, unassigned) [Compound 179b]",
    "MEASURED_PARAMETER": "Ki",
    "REPORTED": 0.91
  },
  {
    "MOLECULE": "CCC[C@@H]1C[C@]12CNc1ncc(-c3ccc(N)c(C(=O)N(C)C)c3F)cc12 (single isomer, unassigned) [Compound 217b]",
    "MEASURED_PARAMETER": "Ki",
    "REPORTED": 9.05
  },
  {
    "MOLECULE": "C[C@@H]1C[C@@]12CNc1ncc(-c3c[nH]c4c(N5CCNCC5=O)cccc34)cc12 (relative stereo) [Compound 306a]",
    "MEASURED_PARAMETER": "Ki",
    "REPORTED": 43.2
  },
  {
    "MOLECULE": "CN(C)C(=O)c1c(N)ccc(-c2cnc3c(c2Cl)[C@]2(CC[C@](C)(C#N)C2)CN3)c1F (single isomer, unassigned) [Compound 261a]",
    "MEASURED_PARAMETER": "Ki",
    "REPORTED": 4.2
  }
]

Here is the next item to consider.
// recorded Ki for CN(C)C(=O)c1c(N)ccc(-c2cnc3c(c2Cl)[C@]2(CC[C@H](C(=O)O)C2)CN3)c1F (single isomer, unassigned) [Compound 105a] : 9.85

###

Target: UniProtKB Q92918
Provide the reported Ki of each item.
Numbers only, in nM.

[
  {
    "MOLECULE": "CCc1cnn([C@H]2CC[C@@]3(CNc4ncc(-c5ccc(N)c(C(=O)N(C)C)c5F)c(Cl)c43)C2)c1 (relative stereo) [Compound 170a]",
    "UNIT_SYMBOL": "nM",
    "Ki": 5.54
  },
  {
    "MOLECULE": "NS(=O)(=O)c1cccc(-c2cnc3c(c2)C2(CC2)CN3)c1",
    "UNIT_SYMBOL": "nM",
    "Ki": 66.4
  },
  {
    "MOLECULE": "CN(C)C(=O)c1c(N)ccc(-c2cnc3c(c2Cl)[C@]2(CC[C@H](n4cc(Cl)cn4)C2)CN3)c1F (relative stereo) [Compound 171a]",
    "UNIT_SYMBOL": "nM",
    "Ki": 6.58
  }
]

Please state Ki for every molecule in the list that follows.
1. N#Cc1ccc2[nH]cc(-c3cnc4c(c3Cl)[C@]3(CC[C@H](O)CC3)CN4)c2c1 [Compound 325a]
2. CN(C)CCCN(C)C(=O)c1c(N)ccc(-c2cnc3c(c2Cl)[C@]2(CC[C@](C)(C#N)C2)CN3)c1F (relative stereo) [Compound 275a]
3. CN(C)C(=O)c1c(N)ccc(-c2cnc3c(c2Cl)[C@]2(CC[C@H](n4cc(C(F)(F)F)cn4)C2)CN3)c1F (relative stereo) [Compound 164a]
4. Cn1cc(C2CCCCN2C(=O)c2cccc(-c3cnc4c(c3)[C@]3(CC[C@H](O)CC3)CN4)c2F)cn1 (stereo partly drawn) [Compound 245a]
5. CC(=O)Nc1cccc(-c2cnc3c(c2Cl)C2(CC=CC2)CN3)c1

Reply text:
1. 40.7
2. 41
3. 6.65
4. 42
5. 275

Give Ki for each of the items listed below.
1. Nc1cc(-c2cnc3c(c2Cl)[C@@]2(CC[C@@H](O)C2)CN3)cc(-c2ncccc2CO)c1 (single isomer, unassigned) [Compound 61b]
2. CO[C@H]1C[C@]2(CNc3ncc(-c4ccc(N)c(C(=O)N(C)C)c4F)c(Cl)c32)C[C@@H]1O (stereo in doubt) [Compound 140b]
3. CC(C)[C@H]1C[C@@]12CNc1ncc(-c3ccc(N)c(C(=O)N(C)C)c3F)c(Cl)c12 (single isomer, unassigned) [Compound 193a]
4. CN(C)C(=O)c1c(N)ccc(-c2cnc3c(c2Cl)[C@]2(CC[C@H](n4cc(C(N)=O)cn4)C2)CN3)c1F (relative stereo) [Compound 180a]

Reply text:
12.1
62.5
3.64
46.1

Could you tell me Ki for each of these molecules? They are listed below.
1. CC[C@]1(C(N)=O)CC[C@@]2(CNc3ncc(-c4ccc(N)c(C(=O)N(C)C)c4F)c(Cl)c32)C1 (relative stereo) [Compound 153a]
2. CC1(C(N)=O)C(=O)Nc2ccc(-c3cnc4c(c3Cl)C3(CC3)CN4)cc21 (stereo not drawn)

Reply text:
1: 7.16; 2: 144

Working through the 3 molecules below one at a time, give Ki for each.
1. Nc1cc(-c2cnc3c(c2)C2(CC2)CN3)nc(-c2ncccn2)c1
2. CCC[C@H]1C[C@@]12CNc1ncc(-c3ccc(N)c(C(=O)N(C)C)c3F)c(Cl)c12 (single isomer, unassigned) [Compound 197a]
3. Cc1ccc2[nH]cc(-c3cnc4c(c3)C3(CC3)CN4)c2c1

Reply text:
1: 387; 2: 5.13; 3: 73.1

Where do these numbers come from? They come from patent US12208088B2.
